- assay text: Toxicokinetics in Beagle dogs, 7 day repeat oral administration
- Type: in vivo
- condition info: plasma; Beagle dog, 20 mg/kg PO BID, Day7, Female, Subject 1
- Description: To understand its toxicokinetics and potential effect on hepatic functions, EXAMPLE 23 was orally dosed to Beagle dogs for 7 consecutive days.
reported endpoint: Tmax (min)
The figure you give is taken to be in min; do not add the unit.

**Query** // query Tmax value for entry "CC(C)CN(c1ccc([C@H](C)CC(=O)O)cc1Nc1nnc(C2CC2)s1)C1CCOCC1"
**Result** 30

---

- experimental system: indoleamine 2, 3-dioxygenase (IDO1) (Homo sapiens, UniProt P14902)
- Sequence (P14902 whole entry): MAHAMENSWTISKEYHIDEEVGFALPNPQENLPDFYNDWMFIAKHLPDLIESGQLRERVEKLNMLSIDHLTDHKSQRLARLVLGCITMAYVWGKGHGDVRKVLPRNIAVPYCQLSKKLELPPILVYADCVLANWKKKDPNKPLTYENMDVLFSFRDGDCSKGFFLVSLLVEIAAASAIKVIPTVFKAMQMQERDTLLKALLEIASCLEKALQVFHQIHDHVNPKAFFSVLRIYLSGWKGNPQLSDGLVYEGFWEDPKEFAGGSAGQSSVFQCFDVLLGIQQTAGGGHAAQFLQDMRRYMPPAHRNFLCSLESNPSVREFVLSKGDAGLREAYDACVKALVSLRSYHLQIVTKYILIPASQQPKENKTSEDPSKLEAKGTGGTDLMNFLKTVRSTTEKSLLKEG
- assay text: IDO1 PBMC RapidFire MS assay (kynurenine detection by mass spectrometry)
- Format: cell-based
- Set-up: to induce the expression of indoleamine 2, 3-dioxygenase (IDO1); host or cells: human PBMC stimulated with IFN-gamma and LPS
- condition info: human PBMC stimulated with IFN-γ and LPS, 2 days, pIC50, read-out: PBMC PXC50 (converted)
reported endpoint: log10 IC50 (log10 of the value in nM)
Would you kindly interpret these values as log10 of IC50 expressed in nM?

**Query** // query log10 IC50 value for entry "CO[C@H]1CC[C@@H](N(CC(C)C)c2ccc([C@H](C)CC(=O)O)cc2Nc2ccc(C#N)cn2)CC1"
**Result** 0.20

**Query** // query log10 IC50 value for entry "CC(C)CN(c1ccc(C(C)(C)CC(=O)O)cc1Nc1ccc(Cl)cn1)C1CCOCC1"
**Result** 0.60

**Query** // query log10 IC50 value for entry "CC(C)CN(c1ccc([C@H](C)CC(=O)O)cc1Nc1nnc(C(N)=O)s1)C1CCOCC1"
**Result** 1.50

**Query** // query log10 IC50 value for entry "CC(C)CN(CCCCCN=[N+]=[N-])c1ccc([C@H](C)CC(=O)O)cc1Nc1nc(C(F)(F)F)ns1"
**Result** 0.10

**Query** // query log10 IC50 value for entry CC(C)CN(CC(C)C)c1ccc(C(C)CC(=O)O)cc1NC1CCCCC1 (centres unmarked)
**Result** 2.90

**Query** // query log10 IC50 value for entry "CC(C)CN(CCCCCN)c1ccc([C@H](C)CC(=O)O)cc1Nc1nc(C(F)(F)F)ns1"
**Result** 1.70

**Query** // query log10 IC50 value for entry "CC(C)CN(CC(C)C)c1ccc(-c2ccccc2C(=O)O)cc1Nc1nc2ccccc2[nH]1"
**Result** 1.30

**Query** // query log10 IC50 value for entry "CC(C)CN(c1cc(F)c([C@H](C)CC(=O)O)cc1Nc1ccc(Cl)nc1)C1CCOCC1"
**Result** 0.10

---

Could you please report measured HELA_IDO1_TOX_PXC50 for the items listed next?
- Tested on: human epithelial HeLa cells
- assay text: HeLa cytotoxicity assay (CellTiter-Glo)
- Assay type: cell-based
- condition info: pCC50

**Query** Under human epithelial HeLa cells: HELA_IDO1_TOX_PXC50 value of CC(C)CN(c1ccc([C@H](C)CC(=O)O)cc1NC1CCCC(C)(C)C1)C1CCCCC1 (stereo partly shown) [example 183] ?
**Result** <5

**Query** Under human epithelial HeLa cells: HELA_IDO1_TOX_PXC50 value of CC(C)CN(c1ccc([C@H](C)Cc2nnn[nH]2)cc1Nc1nc(Cl)ns1)C1CCCCC1 [Example 102] ?
**Result** <5

**Query** Under human epithelial HeLa cells: HELA_IDO1_TOX_PXC50 value of Cc1nnc(Nc2cc([C@H](C)CC(=O)O)ccc2N(CC(C)C)C2CCOCC2)s1 [example 215] ?
**Result** <5

**Query** Under human epithelial HeLa cells: HELA_IDO1_TOX_PXC50 value of CC(C)CN(CC(C)C)c1ccc(C(C)CC(=O)O)cc1Nc1nc2c(s1)CCCC2 (stereo not shown) [example 131] ?
**Result** 4.7

**Query** Under human epithelial HeLa cells: HELA_IDO1_TOX_PXC50 value of CC(C)CN(c1ccc(-c2ccccc2C(=O)O)cc1Nc1cccc(Cl)n1)C1CCCCC1 [example 266] ?
**Result** <5

**Query** Under human epithelial HeLa cells: HELA_IDO1_TOX_PXC50 value of COCc1nnc(Nc2cc(C(C)CC(=O)O)ccc2N(CC(C)C)CC(C)C)s1 (stereo not shown) [example 188] ?
**Result** <5

**Query** Under human epithelial HeLa cells: HELA_IDO1_TOX_PXC50 value of CC(C)CN(c1ccc(-c2ccccc2C(=O)O)cc1Nc1nc(C(F)(F)F)ns1)C1CCN(C)CC1 [example 274] ?
**Result** <5

**Query** Under human epithelial HeLa cells: HELA_IDO1_TOX_PXC50 value of CC(C)CN(c1ccc([C@H](C)CC(=O)O)cc1Nc1ccc(Cl)nc1)[C@H]1CC[C@H](O)CC1 [Example 49] ?
**Result** <5

**Query** Under human epithelial HeLa cells: HELA_IDO1_TOX_PXC50 value of CC(C)CN(CC(C)C)c1ccc(C(C)CC(=O)O)cc1Nc1nnc(C2CC2)o1.O=C(O)C(F)(F)F (stereo not shown) [example 126] ?
**Result** <4.3

**Query** Under human epithelial HeLa cells: HELA_IDO1_TOX_PXC50 value of CC(=O)Nc1ccc(Nc2cc(C(C)CC(=O)O)ccc2N(CC(C)C)CC(C)C)nc1 (stereo not shown) [example 199] ?
**Result** <5

**Query** Under human epithelial HeLa cells: HELA_IDO1_TOX_PXC50 value of CC(C)CN(c1ccc(-c2ccncc2C(=O)O)cc1Nc1nc2ccccc2o1)C1CCCCC1 [example 281] ?
**Result** <5

**Query** Under human epithelial HeLa cells: HELA_IDO1_TOX_PXC50 value of CC(C)CN(c1ccc([C@H](C)CC(=O)O)cc1Nc1ccc(C#N)cn1)C1CCCCC1 [Example 73] ?
**Result** <5

**Query** Under human epithelial HeLa cells: HELA_IDO1_TOX_PXC50 value of COCCc1nnc(Nc2cc([C@H](C)CC(=O)O)ccc2N(CC(C)C)C2CCCCC2)[nH]1 [example 214] ?
**Result** <5

**Query** Under human epithelial HeLa cells: HELA_IDO1_TOX_PXC50 value of CC(C)CN(CC(C)C)c1ccc(C(C)CC(=O)O)cc1Nc1nc(-c2ccccc2)cs1 (stereo not shown) [example 128] ?
**Result** 4.4

**Query** Under human epithelial HeLa cells: HELA_IDO1_TOX_PXC50 value of CC(C)CN(c1ccc(C(C)CC(=O)O)cc1NC1=NC(=O)[C@H](c2ccccc2)N1)C1CCCCC1 (stereo partly shown) [example 165] ?
**Result** <5

**Query** Under human epithelial HeLa cells: HELA_IDO1_TOX_PXC50 value of CC(C)CN(c1ccc(C(C)OCC(=O)O)cc1Nc1ccc(C(N)=O)cn1)C1CCCCC1 (stereo not shown) [example 201] ?
**Result** <5

---

- Test system: human peripheral blood mononuclear cells (PBMC)
- assay text: PBMC cytotoxicity assay (CellTiter-Glo)
- Format: cell-based
- condition info: 2 days, pCC50
Could you please report measured PBMC TOX PXC50 for the items listed next?

**Query** // query PBMC TOX PXC50 value for entry CC(C)CN(c1ccc([C@H](C)CC(=O)O)cc1Nc1nc(C(F)(F)F)ns1)C1CCN(S(C)(=O)=O)CC1 [Example 71]
**Result** <5

**Query** // query PBMC TOX PXC50 value for entry CC(C)CN(c1ccc(C(C)OCC(=O)O)cc1Nc1ccc(C#N)cn1)C1CCCCC1 (stereo not shown) [Example 113]
**Result** <5

**Query** // query PBMC TOX PXC50 value for entry CC(C)CN(c1ccc([C@H](C)CC(=O)O)cc1Nc1ccc(Cl)cn1)C1CCOCC1 [Example 8]
**Result** <5

**Query** // query PBMC TOX PXC50 value for entry CC(C)CN(c1ccc([C@H](C)CC(=O)O)cc1Nc1ccc(C(N)=O)cn1)C1CCOCC1 [example 240]
**Result** <5

**Query** // query PBMC TOX PXC50 value for entry CONC(=O)C[C@@H](C)c1ccc(N(CC(C)C)C2CCOCC2)c(Nc2nc(C(F)(F)F)ns2)c1 [Example 106]
**Result** <5

**Query** // query PBMC TOX PXC50 value for entry COC(=O)c1c[nH]c(Nc2cc([C@H](C)CC(=O)O)ccc2N(CC(C)C)[C@H]2CC[C@@H](OC)CC2)n1 [Example 46]
**Result** 5.2

**Query** // query PBMC TOX PXC50 value for entry CC(C)CN(c1ccc([C@H](C)CC(=O)O)cc1Nc1cnc(Cl)nc1)C1CCOCC1 [Example 10]
**Result** <5

**Query** // query PBMC TOX PXC50 value for entry CC(C)CN(c1ccc([C@H](C)CC(=O)O)cc1Nc1ccc(Cl)nc1)C1CCOCC1 [Example 6]
**Result** <5

**Query** // query PBMC TOX PXC50 value for entry CC(C)CN(CC(C)C)c1ccc([C@@H]2C[C@@H]2C(=O)O)cc1Nc1nc(C(F)(F)F)ns1 (single isomer, unassigned) [example 209]
**Result** <5

**Query** // query PBMC TOX PXC50 value for entry CC(C)CN(CC(C)C)c1ccc(C(C)CC(=O)O)cc1Nc1nnnn1C (stereo not shown) [example 252]
**Result** <5

**Query** // query PBMC TOX PXC50 value for entry CC(C)CN(c1ccc(-c2ccccc2C(=O)O)cc1Nc1nc(C(F)(F)F)ns1)[C@H]1CC[C@@H](O)CC1 [example 279]
**Result** <5

**Query** // query PBMC TOX PXC50 value for entry CC(C)CN(c1ccc([C@H](C)CC(=O)O)cc1Nc1nnc(C2CC2)s1)C1CCOCC1 [Example 23]
**Result** <5

**Query** // query PBMC TOX PXC50 value for entry CC(C)CN(c1ccc([C@H](C)CC(=O)O)cc1Nc1ccc(C(F)(F)F)cn1)C1CCOCC1 [Example 27]
**Result** <5

**Query** // query PBMC TOX PXC50 value for entry COCc1ccc(Nc2cc([C@H](C)CC(=O)O)ccc2N(CC(C)C)C2CCOCC2)cn1 [Example 31]
**Result** <5

**Query** // query PBMC TOX PXC50 value for entry CC(C)CN(CC(C)C)c1ccc(C2(CC(=O)O)CC2)cc1Nc1nc(C(F)(F)F)ns1 [Example 110]
**Result** 5.2

**Query** // query PBMC TOX PXC50 value for entry CC(C)CN(c1ccc([C@H](C)CC(=O)O)cc1Nc1ccc(C#N)cn1)C1CCOCC1 [Example 16]
**Result** <5

**Query** // query PBMC TOX PXC50 value for entry CC(C)CN(c1ccc([C@H](C)CC(=O)NS(C)(=O)=O)cc1Nc1nc(C(F)(F)F)ns1)C1CCOCC1 [Example 107]
**Result** 5.3

**Query** // query PBMC TOX PXC50 value for entry CC(C)CN(c1ccc([C@H](C)CC(=O)O)cc1Nc1nc(C(C)C)ns1)C1CCOCC1 [Example 26]
**Result** <5

**Query** // query PBMC TOX PXC50 value for entry CO[C@H]1CC[C@@H](N(CC(C)C)c2ccc([C@H](C)CC(=O)O)cc2Nc2n[nH]c(Cl)n2)CC1 [Example 61]
**Result** <5

**Query** // query PBMC TOX PXC50 value for entry CNC(=O)c1nc(Nc2cc([C@H](C)CC(=O)O)ccc2N(CC(C)C)[C@H]2CC[C@@H](OC)CC2)n[nH]1 (racemic) [example 246]
**Result** <5

**Query** // query PBMC TOX PXC50 value for entry CC(C)CN(c1ccc(-c2cnccc2C(=O)O)cc1Nc1nc2ccccc2o1)C1CCCCC1 [example 289]
**Result** <5

**Query** // query PBMC TOX PXC50 value for entry COC(=O)N1CCC(N(CC(C)C)c2ccc([C@H](C)CC(=O)O)cc2Nc2nc(C(F)(F)F)ns2)CC1 [Example 66]
**Result** 5.2

**Query** // query PBMC TOX PXC50 value for entry CC(C)CN(c1ccc([C@H](C)CC(=O)O)cc1Nc1ccc(Cl)c(Cl)n1)C1CCOCC1 [Example 33]
**Result** <5

**Query** // query PBMC TOX PXC50 value for entry CC(C)CN(c1ccc(-c2ccccc2C(=O)O)cc1Nc1cccc(Cl)n1)C1CCCCC1 [example 266]
**Result** <5

**Query** // query PBMC TOX PXC50 value for entry CC(C)CN(CC(C)C)c1ccc(-c2ccccc2C(=O)O)cc1Nc1nc2ccccc2[nH]1 [example 297]
**Result** <5
